Tested on: Streptococcus pyogenes
experimentalDetails: ED50 vs Streptococcus pyogenes experimental infection in mice (Table VI)
Format: in vivo
assayContext: sc, subcutaneous, two doses, several values = results from more than one test, read-out: ED50 Subcutaneous
readout: ED50

compound: CCC1OC(=O)CC(O)C(C)C(OC2OC(C)C(O)C(N(C)C)C2O)C(CC=O)CC(C)C(=O)C=CC(C)=CC1CN1CCC2CCCCC2C1 (stereo not drawn) [Compound 33]
recordedValue: > 10 mg/kg

compound: CCC1OC(=O)CC(O)C(C)C(OC2OC(C)C(O)C(N(C)C)C2O)C(CC=O)CC(C)C(=O)C=CC(C)=CC1CN1CCc2ccccc2C1 (stereo not drawn) [Compound 29]
recordedValue: > 10 mg/kg

compound: CCC1OC(=O)CC(O)C(C)C(OC2OC(C)C(O)C(N(C)C)C2O)C(CC=O)CC(C)C(=O)C=CC(C)=CC1CN(Cc1ccccc1)C1CC2CCC1C2 (stereo not drawn) [Compound 6]
recordedValue: > 10 mg/kg
